Where do these numbers come from? They come from patent US12686692B2.

- study_target: KRas G12D (Homo sapiens, UniProt P01116, G12D)
- Sequence (P01116 1-169 isoform P01116-2 G12D): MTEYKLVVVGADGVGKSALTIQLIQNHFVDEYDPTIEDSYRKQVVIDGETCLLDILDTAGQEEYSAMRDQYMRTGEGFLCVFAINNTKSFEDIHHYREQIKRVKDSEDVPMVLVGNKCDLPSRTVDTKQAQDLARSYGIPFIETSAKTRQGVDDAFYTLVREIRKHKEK
- assay_explanation: KRas G12D Binding Assay (TR-FRET displacement of labeled tracer)
- condition_context: TR-FRET displacement of Cy5 labelled tracer, biotinylated GDP-loaded KRAS G12D (aa 1:169), 60 minute incubation at 22° C.
property_label: pIC50
Answer as the number alone; pIC50 is minus log10 of concentration in mol/L.

q: Consider the molecule O[C@@H]1C[C@@H]2CN(c3nc(OCC45CCCN4CC(F)C5)nc4c3CCN(c3cccc5cccc(Cl)c35)C4)C[C@H]1N2 (mixture of isomers) [Example 45] . State its measured pIC50.
a: 8.59

q: Consider the molecule c1ccc2c(N3CCc4c(nc(OCC56CCCN5CCC6)nc4N4C[C@H]5CC[C@@H](C4)N5)C3)cccc2c1 [Example 114] . State its measured pIC50.
a: 7.47

q: Consider the molecule CN1CCC[C@H]1COc1nc2c(c(N3C[C@H]4CC[C@@H](C3)N4)n1)CCN(c1cccc3ccccc13)C2 [Example 70] . State its measured pIC50.
a: 5.95

q: Consider the molecule CC1CCCc2cccc(N3CCc4c(nc(OC[C@@H]5CCCN5C)nc4N4C[C@H]5CC[C@@H](C4)N5)C3)c21 (stereo partly shown) [Example 82] . State its measured pIC50.
a: 7.21
